These measurements were taken from paper PMC11672400.

The compounds listed here are annotated with their viability at 48 h, 6.25 µg/mL.
- experimentNotes: MTT cell viability / cytotoxicity on normal fibroblasts
- Format: cell-based, mouse
- details: mouse; 6.25 µg/mL, 48h; read-out: Cell viability on NCTC cells (%)
Express the reported value numerically, then name its unit.

Cc1nn(CN(Cn2nc(C)c([N+](=O)[O-])c2C)c2ccc(Br)cc2)c(C)c1[N+](=O)[O-] [5c] :: 101%

// next entry
**Q:** Which viability at 48 h, 6.25 µg/mL value is on record for Cc1nn(CN(Cn2nc(C)c([N+](=O)[O-])c2C)c2ccc(F)cc2)c(C)c1[N+](=O)[O-] [5a] ?
**A:** 88.7%
